# test: Solubility
# Type: physicochemical
# condition-details: water

# compound, solubility in water
data = [
    ("COC1COC(OC2C(N)CC(N)C(OC3OC(CN)CC(O)C3N)C2O)C(N)C1N (stereo not shown) [sulfate of XK-88-5]", "very soluble"),
    ("NC1CC(N)C(OC2OC(CO)C(O)C(O)C2N)C(O)C1OC1OCC(O)C(O)C1N (stereo not shown) [sulfate of XK-88-1]", "very soluble"),
    ("NCC1CC(O)C(N)C(OC2C(N)CC(N)C(O)C2O)O1 (stereo not shown) [sulfate of XK-88-2]", "very soluble"),
    ("NCC1OC(OC2C(N)CC(N)C(OC3OCC(O)C(O)C3N)C2O)C(N)C(O)C1O (stereo not shown) [sulfate of XK-88-3]", "very soluble"),
]

Recorded values, source patent US3939043A.
